Where do the numbers come from? From BindingDB's records for doi:10.1021/jm9910324.

This listing pairs compounds with measured pKi.
biological target: Alpha-2A adrenergic receptor [16-465]/Alpha-2B adrenergic receptor/Alpha-2C adrenergic receptor (Rattus norvegicus, UniProt P19328+P22086+P22909); construct: 16-465; assay: The binding affinity was evaluated on alpha-2 adrenergic receptor expressed in rat cortex by using [3H]rauwolscine as radioligand.
Sequence (P22909 16-465): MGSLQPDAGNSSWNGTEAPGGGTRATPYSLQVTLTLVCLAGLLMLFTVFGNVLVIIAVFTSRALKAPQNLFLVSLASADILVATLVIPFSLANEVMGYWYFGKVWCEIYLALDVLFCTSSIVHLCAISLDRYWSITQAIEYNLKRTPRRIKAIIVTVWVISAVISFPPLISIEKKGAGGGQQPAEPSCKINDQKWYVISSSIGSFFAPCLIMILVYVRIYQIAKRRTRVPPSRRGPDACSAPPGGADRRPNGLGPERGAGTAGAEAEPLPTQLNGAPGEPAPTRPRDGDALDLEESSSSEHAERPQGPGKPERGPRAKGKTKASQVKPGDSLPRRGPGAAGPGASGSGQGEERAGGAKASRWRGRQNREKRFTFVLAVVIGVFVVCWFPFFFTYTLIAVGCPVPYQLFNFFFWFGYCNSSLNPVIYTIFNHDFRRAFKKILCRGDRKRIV
Sequence (P22086 whole entry): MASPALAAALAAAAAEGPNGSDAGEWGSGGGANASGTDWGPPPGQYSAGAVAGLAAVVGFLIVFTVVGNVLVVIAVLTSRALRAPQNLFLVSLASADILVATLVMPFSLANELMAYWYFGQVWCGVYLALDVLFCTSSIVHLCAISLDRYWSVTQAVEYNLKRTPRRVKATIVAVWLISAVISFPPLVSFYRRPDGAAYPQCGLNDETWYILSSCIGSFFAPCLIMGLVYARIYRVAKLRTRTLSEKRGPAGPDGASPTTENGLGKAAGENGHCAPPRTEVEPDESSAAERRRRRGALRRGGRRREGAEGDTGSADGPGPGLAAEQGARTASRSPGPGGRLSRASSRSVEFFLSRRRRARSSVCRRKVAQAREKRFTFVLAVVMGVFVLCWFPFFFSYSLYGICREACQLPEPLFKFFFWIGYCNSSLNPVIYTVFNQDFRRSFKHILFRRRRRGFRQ
Sequence (P19328 whole entry): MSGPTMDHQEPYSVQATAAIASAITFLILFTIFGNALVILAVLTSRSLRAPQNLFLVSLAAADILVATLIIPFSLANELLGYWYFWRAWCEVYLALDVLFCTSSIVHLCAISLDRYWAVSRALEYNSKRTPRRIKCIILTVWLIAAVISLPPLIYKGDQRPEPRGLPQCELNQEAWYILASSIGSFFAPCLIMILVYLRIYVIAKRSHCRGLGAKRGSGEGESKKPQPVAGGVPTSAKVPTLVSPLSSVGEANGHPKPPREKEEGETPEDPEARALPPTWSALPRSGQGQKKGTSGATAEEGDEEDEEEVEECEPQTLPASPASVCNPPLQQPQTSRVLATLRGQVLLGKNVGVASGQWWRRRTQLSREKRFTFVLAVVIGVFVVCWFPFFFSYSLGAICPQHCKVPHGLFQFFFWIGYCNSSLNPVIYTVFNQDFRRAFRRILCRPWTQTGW
Where a name gives a salt, the structure may show the parent alone.
Give the value as a plain number.

Recorded pKi, per entry:
compound	pKi
COc1cccc(OC)c1OCCNCC1C(=O)c2ccccc2CC1c1ccccc1 (centres undefined)	6.45
COc1cccc(OC)c1OCCNCC1COc2ccccc2O1 (centres undefined) [WB-4101 hydrochloride]	7.83

Field: next compound
Query :: Record request: pKi value, item CCCN(CCC)C1CCc2cccc(O)c2C1 (centres undefined)
Result :: 6.08

====

Target: 5-hydroxytryptamine receptor 1A (Homo sapiens)
Sequence (P08908 whole entry): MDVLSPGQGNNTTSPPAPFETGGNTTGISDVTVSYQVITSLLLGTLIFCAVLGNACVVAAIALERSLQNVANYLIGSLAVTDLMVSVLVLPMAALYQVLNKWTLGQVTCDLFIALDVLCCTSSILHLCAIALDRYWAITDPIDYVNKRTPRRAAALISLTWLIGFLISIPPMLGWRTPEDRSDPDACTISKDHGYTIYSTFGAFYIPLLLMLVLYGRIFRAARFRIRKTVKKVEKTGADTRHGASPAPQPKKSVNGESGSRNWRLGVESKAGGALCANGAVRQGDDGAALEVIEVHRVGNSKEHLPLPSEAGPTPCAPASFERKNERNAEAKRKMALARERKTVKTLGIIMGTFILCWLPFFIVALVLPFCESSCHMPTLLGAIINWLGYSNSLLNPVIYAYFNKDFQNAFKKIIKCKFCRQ
Test: The binding affinity was evaluated on cloned human 5-hydroxytryptamine 1A receptor expressed in HeLa cells by using DPAT as radioligand.
Counter-ions that a name gives are not always drawn.
Quick rule: pKi of at least 7 means label 1, below that means label 0.

Solved entries (count: 2):
compound	label
COc1cccc(OC)c1OCCNCC1COc2ccccc2O1 (configuration not stated) [WB-4101 hydrochloride]	label 1
COc1cccc(OC)c1OCCNCC1=Cc2ccccc2OC1c1ccccc1 (configuration not stated)	label 1

Query :: Evaluate COc1cccc(OC)c1OCCNCC1C(=O)c2ccccc2SC1c1ccccc1 (configuration not stated) : pKi at minimum 7?
Result :: label 1

Query :: And then COc1cccc(OC)c1OCCNCCOc1ccccc1OCc1ccccc1 , what is it?
Result :: label 1

Query :: And then COc1cccc(OC)c1OCCNCC1C(=O)c2ccccc2OC1c1ccccc1 (configuration not stated) , what is it?
Result :: label 0

====

This listing pairs compounds with measured pKi.
Biological target: Alpha-1B adrenergic receptor (Homo sapiens, UniProt P35368)
Sequence (P35368 whole entry): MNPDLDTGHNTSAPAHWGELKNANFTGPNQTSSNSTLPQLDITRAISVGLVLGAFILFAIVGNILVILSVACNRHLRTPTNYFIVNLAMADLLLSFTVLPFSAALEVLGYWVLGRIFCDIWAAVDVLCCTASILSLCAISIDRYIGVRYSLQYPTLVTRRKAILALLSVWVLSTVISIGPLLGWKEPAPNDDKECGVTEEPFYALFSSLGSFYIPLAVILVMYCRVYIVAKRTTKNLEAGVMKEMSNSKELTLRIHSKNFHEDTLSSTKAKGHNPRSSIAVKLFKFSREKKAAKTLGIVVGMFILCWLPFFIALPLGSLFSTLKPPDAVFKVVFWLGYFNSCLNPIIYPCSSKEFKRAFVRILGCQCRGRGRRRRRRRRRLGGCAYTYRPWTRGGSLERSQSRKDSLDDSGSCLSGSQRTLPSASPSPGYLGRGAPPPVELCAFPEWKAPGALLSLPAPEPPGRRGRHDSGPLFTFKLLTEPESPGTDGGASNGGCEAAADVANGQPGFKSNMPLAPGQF
Experiment: The binding affinity was evaluated on cloned human alpha-1B adrenergic receptor expressed in chinese hamster ovary(CHO) cells by using [3H]prazosin as radioligand.
Give the value as a plain number.

compound	pKi
COc1cccc(OC)c1OCCNCC1C(=O)c2ccccc2CC1c1ccccc1 (centres undefined)	6.11
COc1cccc(OC)c1OCCNCC1C(=O)c2ccccc2OC1c1ccccc1 (centres undefined)	6.84

Field: next compound
Query :: Record request: pKi value, item COc1cccc(OC)c1OCCNCC1Oc2ccccc2CC1c1ccccc1 (centres undefined)
Result :: 6.51
